Where these numbers come from: the supplement of paper PMC7125110

B1: glmS ribozyme (parent)
chain: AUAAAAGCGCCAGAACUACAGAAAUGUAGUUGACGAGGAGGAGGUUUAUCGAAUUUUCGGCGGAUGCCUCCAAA

# Variants of: B1
# PROCEDURE SUMMARY: self-cleavage kobs at 2500 uM GlcN6P; higher = faster cleavage; RNA array
# RUN CONDITIONS: with glucosamine-6-phosphate
This sample holds only a part of the variants without activity.
MEASURED ENDPOINT: self-cleavage kobs at 2500 uM GlcN6P

Some entries whose results are on file:
{"columns": ["SEQUENCE TEXT", "MEASURED ENDPOINT", "READOUT VALUE"],
 "data": [
  ["AUAAAAGCGCCAGAACUACAGAAAUGUAGUUGACGAGGAGGAGCUUUAUCGAAUUUUCGGCCGAUGCCUCCAAA", "self-cleavage kobs at 2500 uM GlcN6P", "< 1e-05 s⁻¹"],
  ["AUAAAAGCGCCAGAACUACAGAAAUGUAGUUGACGAGGAGGAGGUUUAUCGAAUUUCAGGCGGAUGGCUCCAAA", "self-cleavage kobs at 2500 uM GlcN6P", "0.000113 s⁻¹"],
  ["AUAAAAGCGCCAGAACUACAGAAAUGUAGUCGACGAGGAGUAGGUUUAUCGAAUUUUCGGCGGAUGCCUCCAAA", "self-cleavage kobs at 2500 uM GlcN6P", "0.000117 s⁻¹"]
]}

Inquiry: Using known records, supply self-cleavage kobs at 2500 uM GlcN6P for AUAAAAGCGCCAGAACUACAGAAAUGUAGUGGACGAGGAGGAGGUUUAUCGAAUAUUCGGCGGAUGCCUCCAAA
Reply text: 0.00465 s⁻¹
